I'd be grateful if you could share measured residual activity for these entries.
# system_under_test: MELK (human) (UniProt Q14680)
# Sequence (Q14680 whole entry, looked up): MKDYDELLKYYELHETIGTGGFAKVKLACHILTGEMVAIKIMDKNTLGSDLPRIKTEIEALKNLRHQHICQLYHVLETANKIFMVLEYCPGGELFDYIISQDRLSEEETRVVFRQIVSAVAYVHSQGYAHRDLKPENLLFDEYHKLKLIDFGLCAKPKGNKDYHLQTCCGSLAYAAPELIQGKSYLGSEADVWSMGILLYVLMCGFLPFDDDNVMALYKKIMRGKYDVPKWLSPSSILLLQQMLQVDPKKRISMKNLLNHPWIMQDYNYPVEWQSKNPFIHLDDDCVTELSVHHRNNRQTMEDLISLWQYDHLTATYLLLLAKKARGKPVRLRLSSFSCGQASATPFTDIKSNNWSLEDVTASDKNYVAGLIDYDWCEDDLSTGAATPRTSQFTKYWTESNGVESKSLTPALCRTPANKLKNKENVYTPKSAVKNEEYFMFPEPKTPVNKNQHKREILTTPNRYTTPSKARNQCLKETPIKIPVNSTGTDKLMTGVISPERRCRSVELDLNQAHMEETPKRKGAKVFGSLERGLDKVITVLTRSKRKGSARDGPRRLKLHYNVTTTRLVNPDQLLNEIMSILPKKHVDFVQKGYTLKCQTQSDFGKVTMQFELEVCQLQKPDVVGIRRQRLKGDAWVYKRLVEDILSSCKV
# assay_name: radiometric filter-binding kinase assay, Kinase HotSpot
# assay_context: compound 0.5 µM; ATP 10 µM
Give bare numbers, in %.

In the examples that follow, each entry is paired with its recorded residual activity.
- item_smiles: "COc1cc2ncc(-c3ccccc3)nc2cc1OC"
  residual activity (%): 88.9
- item_smiles: "CN(C)C[C@H]1CCn2c(c(C3=C(c4cn(C)c5ccccc45)C(=O)NC3=O)c3ccccc32)C1"
  residual activity (%): 96.4

# evaluate next
Query: Look up residual activity: Cn1nc2c3c(cccc31)C(=O)c1ccccc1-2
Response: 83.6

###

# system_under_test: TTK (human) (UniProt P33981)
# Sequence (P33981 whole entry, looked up): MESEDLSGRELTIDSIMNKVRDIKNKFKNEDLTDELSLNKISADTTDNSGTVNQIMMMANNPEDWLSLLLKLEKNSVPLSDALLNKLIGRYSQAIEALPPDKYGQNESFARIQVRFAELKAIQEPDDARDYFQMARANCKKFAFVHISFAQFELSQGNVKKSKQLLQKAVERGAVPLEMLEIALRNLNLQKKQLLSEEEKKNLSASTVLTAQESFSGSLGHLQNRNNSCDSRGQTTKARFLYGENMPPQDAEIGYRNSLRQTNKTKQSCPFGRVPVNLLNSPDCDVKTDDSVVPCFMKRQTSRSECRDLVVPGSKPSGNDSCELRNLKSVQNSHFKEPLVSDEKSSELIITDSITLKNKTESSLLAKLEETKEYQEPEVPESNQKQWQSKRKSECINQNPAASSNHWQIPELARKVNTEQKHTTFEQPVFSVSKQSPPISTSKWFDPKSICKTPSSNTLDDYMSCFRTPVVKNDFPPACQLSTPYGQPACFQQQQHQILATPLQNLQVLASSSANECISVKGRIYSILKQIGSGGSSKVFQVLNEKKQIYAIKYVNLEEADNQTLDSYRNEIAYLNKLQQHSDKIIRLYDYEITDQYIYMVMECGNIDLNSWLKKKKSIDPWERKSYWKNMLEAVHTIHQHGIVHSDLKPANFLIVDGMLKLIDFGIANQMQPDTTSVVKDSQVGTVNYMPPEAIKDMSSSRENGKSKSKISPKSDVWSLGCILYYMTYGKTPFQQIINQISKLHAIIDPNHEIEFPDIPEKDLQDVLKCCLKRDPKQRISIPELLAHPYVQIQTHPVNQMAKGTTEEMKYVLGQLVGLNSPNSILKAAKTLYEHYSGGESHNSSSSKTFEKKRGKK
# assay_name: radiometric filter-binding kinase assay, Kinase HotSpot
# assay_context: compound 0.5 µM; ATP 10 µM
I'd be grateful if you could share measured residual activity for these entries.
Answers are plain numbers, in %.

In the examples that follow, each entry is paired with its recorded residual activity.
- compound: "COc1ccc(CNC(=O)Nc2ncc([N+](=O)[O-])s2)cc1"
  residual activity (%): 98.9
- compound: "Oc1ccc(Nc2nc(-c3ccc(Cl)cc3)cs2)cc1"
  residual activity (%): 87.6
- compound: "CCn1cnc2c(Nc3cccc(Cl)c3)nc(N[C@@H]3CCCC[C@@H]3N)nc21"
  residual activity (%): 99.7
- compound: "O=C(Nc1cccc(Nc2cc(Nc3cccc(C(F)(F)F)c3)ncn2)c1)C1CC1"
  residual activity (%): 98.7
- compound: "CC(C)c1nn(-c2c(Cl)cccc2Cl)c2nc(Cc3ccc(OCCO)cc3)nc(O)c12"
  residual activity (%): 101
- compound: "O=C1Nc2ccccc2/C1=C1/Nc2ccccc2/C1=N\\OCCC(O)CO (centres undefined)"
  residual activity (%): 46.1
- compound: "CC(=O)O/N=C1\\C(=C2\\C(=O)Nc3cc(Br)ccc32)Nc2ccccc21"
  residual activity (%): 93.9
- compound: "COc1ccc(OC)c2c(=S)c3ccccc3[nH]c12"
  residual activity (%): 99.1

# evaluate next
Query: Provide the documented residual activity with TTK (human) (UniProt P33981) as the system for COc1cc2ncc(-c3ccccc3)nc2cc1OC
Response: 125

###

# system_under_test: NTRK3 (human) (UniProt Q16288)
# Sequence (Q16288 whole entry, looked up): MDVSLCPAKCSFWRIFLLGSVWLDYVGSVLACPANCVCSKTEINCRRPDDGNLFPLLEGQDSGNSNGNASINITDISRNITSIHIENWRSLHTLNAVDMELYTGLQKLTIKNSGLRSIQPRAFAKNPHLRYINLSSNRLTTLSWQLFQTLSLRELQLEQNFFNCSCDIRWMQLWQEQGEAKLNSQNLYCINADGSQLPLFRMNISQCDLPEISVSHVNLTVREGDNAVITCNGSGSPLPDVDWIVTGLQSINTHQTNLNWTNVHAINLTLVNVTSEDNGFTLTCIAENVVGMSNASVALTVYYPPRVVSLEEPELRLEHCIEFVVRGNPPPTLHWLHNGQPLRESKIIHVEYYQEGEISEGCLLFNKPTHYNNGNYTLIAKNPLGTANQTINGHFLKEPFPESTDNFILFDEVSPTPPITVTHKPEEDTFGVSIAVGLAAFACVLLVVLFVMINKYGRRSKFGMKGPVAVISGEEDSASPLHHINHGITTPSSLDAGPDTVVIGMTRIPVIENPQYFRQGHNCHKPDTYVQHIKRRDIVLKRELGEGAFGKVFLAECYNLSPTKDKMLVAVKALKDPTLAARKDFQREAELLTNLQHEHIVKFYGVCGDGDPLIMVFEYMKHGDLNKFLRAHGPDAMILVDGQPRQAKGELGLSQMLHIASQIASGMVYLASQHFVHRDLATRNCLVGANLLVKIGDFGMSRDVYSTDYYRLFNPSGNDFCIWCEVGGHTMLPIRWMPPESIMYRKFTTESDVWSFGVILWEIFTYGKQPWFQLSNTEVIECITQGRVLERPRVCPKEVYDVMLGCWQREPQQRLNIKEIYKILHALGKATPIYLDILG
# assay_name: radiometric filter-binding kinase assay, Kinase HotSpot
# assay_context: compound 0.5 µM; ATP 10 µM
I'd be grateful if you could share measured residual activity for these entries.
Field: value (include unit after the number)

In the examples that follow, each entry is paired with its recorded residual activity.
- compound: "O=C1Nc2ccccc2/C1=C1/Nc2ccccc2/C1=N\\OCCC(O)CO (stereo unspecified)"
  residual activity: "1.01%"
- compound: "COc1ccc(OC)c2c(=S)c3ccccc3[nH]c12"
  residual activity: "93.6%"
- compound: "Oc1ccc(Nc2nc(-c3ccc(Cl)cc3)cs2)cc1"
  residual activity: "102%"

# batch: return residual activity for each of the 4 compounds below
1. CCN(CC)CCCCN1c2ccccc2Oc2ccc(Cl)cc21
2. CCn1cnc2c(Nc3cccc(Cl)c3)nc(N[C@@H]3CCCC[C@@H]3N)nc21
3. O=C1Cc2c([nH]c3ccc(Br)cc23)-c2ccccc2N1
4. O=C1NC(=O)C(c2cn(CCCO)c3ncccc23)=C1c1cnccn1

Response:
["103%", "23.4%", "70.7%", "79.7%"]

# batch: return residual activity for each of the 7 compounds below
1. CN(C)C[C@H]1CCn2c(c(C3=C(c4cn(C)c5ccccc45)C(=O)NC3=O)c3ccccc32)C1
2. Nc1nnc2[nH]c3ccccc3nc1-2
3. Nc1nccc(-c2c(-c3ccc(F)cc3)ncn2C2CCNCC2)n1
4. COc1cc2ncnc(N3CCN(C(=O)Nc4ccc(Oc5ccccc5)cc4)CC3)c2cc1OC
5. COc1cc2ncc(-c3ccccc3)nc2cc1OC
6. Cn1cnc2cc3c(Nc4cccc(Br)c4)ncnc3cc21
7. O=C1NC(=O)C(c2c[nH]c3ccccc23)=C1c1c[nH]c2ccccc12

Response:
1. 75%
2. 92.1%
3. 97.1%
4. 89%
5. 89.1%
6. 81.4%
7. 72.5%

# batch: return residual activity for each of the 5 compounds below
1. O=C1Nc2ccccc2/C1=C1\Nc2ccccc2\C1=N/O
2. O=C(CCCc1ccc(-c2ccccc2F)cc1)Nc1ccc(O)cc1
3. CC(=O)O/N=C1\C(=C2\C(=O)Nc3cc(Br)ccc32)Nc2ccccc21
4. CN([C@@H](Cc1ccc(OS(=O)(=O)c2cccc3cnccc23)cc1)C(=O)N1CCN(c2ccccc2)CC1)S(=O)(=O)c1cccc2cnccc12
5. O=C1NC(=O)/C(=C\c2ccc3nccnc3c2)S1

Response:
["2.17%", "96.3%", "15.1%", "97.5%", "95.3%"]

# batch: return residual activity for each of the 2 compounds below
1. O=C(Nc1cccc(Nc2cc(Nc3cccc(C(F)(F)F)c3)ncn2)c1)C1CC1
2. Cn1nc2c3c(cccc31)C(=O)c1ccccc1-2

Response:
1: 95.1%; 2: 71.6%
